Data provenance is paper PMC6265470.

measured target: T1, VapC11 toxin (purified alone) (Mycobacterium tuberculosis, UniProt P9WFA4 2-134)
T1 construct: VapC11 toxin (PIN domain ribonuclease) of the VapBC11 toxin-antitoxin system, Mycobacterium tuberculosis; 134 amino acids as printed; also called wild-type protein
T1 sequence: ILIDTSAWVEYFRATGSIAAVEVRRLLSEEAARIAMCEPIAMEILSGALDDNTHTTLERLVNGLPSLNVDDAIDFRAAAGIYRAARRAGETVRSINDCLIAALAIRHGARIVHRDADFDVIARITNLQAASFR
procedure summary: SPR; Biacore 3000; VapC11 immobilised on a CM5 chip (up to 750 RU); five concentrations of VapB11 injected; 10 mM HEPES (pH 7.5), 150 mM NaCl, 25°C, 20 μl/min; 1:1 Langmuir model with drifting baseline
condition set: both partners purified
quantity: Kd

Query: So what's the measured Kd for this one? VapB11 (shorter form, VapB11^6-72), (6x-His)-VapB11 (domain or fragment, Homodimer by AUC; also called antitoxin VapB11) MSRTNIDIDDELAAEVMRRFGLTTKRAAVDLALRRLVGSPLSREFLLGLEGVGWEGDLDDLRSDRPD
Reply: ~600 pM
